In this section, each of the compounds is paired with its reported GI50.
System: A498
measurement.notes: NCI tumour cell line growth inhibition, 48 h
The source made the active and inactive calls. No stated cut-off is given here; in the data, active = GI50 up to about 1.1 µM and inactive = higher.
readout.name: GI50

{"compound": "O=C1CCCCCCCCCCC1CCCCCBr (configuration not stated)", "result": "14.4 µM (inactive)"}
{"compound": "O=C(c1ccc(Cl)c(Cl)c1)N(Cc1cccnc1)C(=S)N(Cc1cccnc1)C(=O)c1ccc(Cl)c(Cl)c1", "result": "33.9 µM (inactive)"}
{"compound": "CC1(C)C(CCO)CC1n1cc(I)c(=O)[nH]c1=O (configuration not stated)", "result": "> 100 µM (inactive)"}
{"compound": "COc1ccc2c3c1OC1C(=O)C=CC4(O)C(C2)NCC[C@@]314 (some centres not stated)", "result": "3.29 µM (inactive)"}
{"compound": "CCCc1c2c([nH]c(=O)c1C)C(=O)c1[nH]c(=O)c(C)c(CCC)c1C2=O", "result": "> 100 µM (inactive)"}
{"compound": "CC1=CC(=O)/C(=C/n2c(=S)[nH]c3ccccc32)C(=O)O1", "result": "> 100 µM (inactive)"}
{"compound": "N=C(N)NNC(=O)CCCCCCCC(=O)NNC(=N)N", "result": "> 100 µM (inactive)"}
{"compound": "CCO[C@]12CCC[C@H]1[C@@H]1C(=O)c3ccccc3C(=O)C1=C(C)O2", "result": "76 µM (inactive)"}
{"compound": "CC1=C[C@H]2c3c([nH]c4ccccc34)C(c3c[nH]c4ccccc34)[C@H]2CC1 (some centres not stated)", "result": "15.5 µM (inactive)"}
{"compound": "Cc1ccc(C)c(COCCOCn2cc(Br)c(N)nc2=O)c1", "result": "> 100 µM (inactive)"}
{"compound": "O=c1c2ccccc2c2ccccc2c(=O)n1-c1cc2c3ccccc3ccc2c2ccccc12", "result": "> 100 µM (inactive)"}
{"compound": "[O-][S+]1Nc2c(Cl)cc(Cl)c3c(Cl)cc(Cl)c(c23)N1", "result": "21.9 µM (inactive)"}

====

Tested on: NCI-H460
measurement.notes: NCI tumour cell line growth inhibition, 48 h
Active and inactive are the calls of the source. No stated cut-off is given here; in the data, active = GI50 up to about 1.1 µM and inactive = higher.
Classes used: T = active, F = inactive

{"molecule": "CC(=O)OC[C@H]1O[C@@H](O[C@H]2[C@H](OC(C)=O)C=CO[C@@H]2COC(C)=O)C(OC(C)=O)[C@H]2OC(C)(C)O[C@H]21 (some centres not stated)", "category": "F"}
{"molecule": "CO[C@]12C#CC=CC#C[C@@H](O)[C@]3(CCC1)O[C@@]23c1cccc(O)c1", "category": "F"}
{"molecule": "O=C(O)C1=NN(c2ccc(S(=O)(=O)O)cc2)C2(C1)SCC(=O)N2c1nc2ccccc2s1 (configuration not stated)", "category": "F"}
{"molecule": "CN(C)CCNC(=O)c1cccc2ccc(-c3ccncc3)nc12", "category": "T"}
{"molecule": "COc1cc(NS(=O)(=O)c2ccc(C)cc2)c2nccnc2c1", "category": "F"}
{"molecule": "O=C1C=CC2(C=C1)C[C@H](NC(=O)C(F)(F)F)C(=O)O2", "category": "F"}
{"molecule": "COc1cc(/C=C\\c2ccc(Br)cc2)cc(OC)c1OC", "category": "T"}

====

System: NCI/ADR-RES
measurement.notes: NCI tumour cell line growth inhibition, 48 h
The source made the active and inactive calls. Rule as the data show it: active = GI50 up to about 1.1 µM and inactive = higher.
Possible outcomes: 1.0 (active), 0.0 (inactive)

{"compound": "CCCCn1c(C)c(C(=O)OCC)s/c1=N/Nc1nc2ccccc2nc1-c1ccccc1", "category": 0.0}
{"compound": "O=C1CC(c2ccco2)C2(C(=O)NC(=O)NC2=O)C(c2ccco2)C1 (centres undefined)", "category": 0.0}
{"compound": "CCC(=O)NI1OC(=O)c2ccccc21", "category": 0.0}
{"compound": "C=C(C)C1CCC2(CO)C(O)CC3(C)C(CCC4C5(C)CCC(O)C(C)(C)C5CCC43C)C12 (centres undefined)", "category": 0.0}
{"compound": "COc1ccc2c3c1OC1C(=O)C=CC4(O)C(C2)NCC[C@@]314 (some centres undefined)", "category": 0.0}
{"compound": "COc1ncc(C#CC(=O)c2ccccc2)c(OC)n1", "category": 0.0}
{"compound": "O=C1c2ccccc2C(=O)N1c1ccc(OCCN2CCCCC2)cc1", "category": 0.0}
{"compound": "CCCCC1c2c([nH]c3ccccc23)C2C(=O)N(c3ccc(OC)cc3)C(=O)C2C1CCC (centres undefined)", "category": 0.0}
{"compound": "OCCCCn1cc(Cn2ncc3c(SCc4ccccc4)ncnc32)nn1", "category": 0.0}
{"compound": "O=c1[nH]c2ccc(Cl)cc2o1", "category": 0.0}
{"compound": "Cc1ccc(C)c(COCCOCn2cc(Br)c(N)nc2=O)c1", "category": 0.0}
{"compound": "CC1(C)[C@@H]2CC[C@@]1(C)CN(CCC[N+](C)(C)C)C2", "category": 0.0}
{"compound": "NCCO/C=C/C(N)C(=O)O (centres undefined)", "category": 0.0}
{"compound": "CC1(C)C(CCO)CC1n1cc(I)c(=O)[nH]c1=O (centres undefined)", "category": 0.0}
{"compound": "COC(=O)C12CCCN1CCC2", "category": 0.0}
{"compound": "COCC1OC(Sc2ccccc2)C(O)C(OC)C1OC (centres undefined)", "category": 0.0}
{"compound": "COc1ccccc1C1c2cc3c(cc2OC(N2CCOCC2)C1C)OCO3 (centres undefined)", "category": 0.0}
{"compound": "CC(O)C1(CNc2cc(Cl)nc(N)n2)CC(CCc2ccccc2)C1 (centres undefined)", "category": 0.0}
{"compound": "COc1cc(Cn2c(=S)ss/c2=N\\C(=S)N(C)C)cc(OC)c1OC", "category": 0.0}
{"compound": "CCOS(C)(=O)=O", "category": 0.0}
{"compound": "Cc1ccc2c(c1)nc(N)n[n+]2[O-]", "category": 0.0}
{"compound": "CN(C)c1ccc(/C=C/C(=O)c2cc(C(C)(C)C)c(O)c(C(C)(C)C)c2)cc1", "category": 1.0}
{"compound": "CC(C)(C)C1CCC2(CC1)CCN(CCCN1CCOCC1)CC2", "category": 0.0}
{"compound": "COc1ccc(Nc2nc3cc(C(F)(F)F)ccc3n3cccc23)cc1OC", "category": 0.0}
{"compound": "O=C(O)CCNC(=O)c1cc(N(CCBr)CCBr)c([N+](=O)[O-])cc1[N+](=O)[O-]", "category": 0.0}
{"compound": "CCCC(c1cc(C(C)(C)C)c(O)cc1C)c1cc(C(C)(C)C)c(O)cc1C", "category": 0.0}
{"compound": "O=S(=O)(Nc1nc2ccccc2nc1Nc1cccc2ccccc12)c1ccccc1", "category": 0.0}
{"compound": "O=C(C[N+]12CN3CN(CN(C3)C1)C2)c1ccc(-c2ccccc2)cc1", "category": 0.0}
{"compound": "O=C1c2ccccc2S(=O)(=O)c2c1cccc2[N+](=O)[O-]", "category": 0.0}
{"compound": "CC1CC(N2CCOCC2)=Nc2ccccc2N1Cc1ccccc1 (centres undefined)", "category": 0.0}
{"compound": "CCOC(=O)/C(=C\\c1cccc(C)c1)C(C)=O", "category": 0.0}
{"compound": "Cc1cccc(/N=N/c2c(C)nn(C(=O)CC(=O)Nc3ccccc3)c2C)c1", "category": 0.0}
{"compound": "COC(=O)[C@]12CCC(=O)N1[C@H](C(=O)O)Cc1c2[nH]c2ccccc12", "category": 0.0}
{"compound": "COC(=N)C12C(N)=NC(OC)(OC)C1(C#N)C21C(=O)N(c2ccccc2)N=C1C (centres undefined)", "category": 0.0}
{"compound": "COC(=O)c1c(O)ccc2c1c1cc3ccccc3cc1n2Cc1cc(OC)cc(OC)c1", "category": 0.0}
{"compound": "O=C1CCCCCCCCCCC1CCCCCBr (centres undefined)", "category": 0.0}
{"compound": "O=[N+]([O-])/C(C(Cl)=C(Cl)Cl)=C1\\Nc2ccc([N+](=O)[O-])cc2N1", "category": 0.0}
{"compound": "COC1/C=C\\OC2(C)Oc3c(C)c(O)c4c(O)c(c(CN(C)C)c(O)c4c3C2=O)NC(=O)/C(C)=C\\C=C/C(C)C(O)C(C)C(O)C(C)C(OC(C)=O)C1C (centres undefined)", "category": 0.0}
{"compound": "O=C(O)C1=NN(c2ccc(S(=O)(=O)O)cc2)C2(C1)SCC(=O)N2c1nc2ccccc2s1 (centres undefined)", "category": 0.0}

====

# GI50 annotations
System: A498
measurement.notes: NCI tumour cell line growth inhibition, 48 h
The source made the active and inactive calls. Rule as the data show it: active = GI50 up to about 1.1 µM and inactive = higher.
readout.name: GI50

{"compound": "Cc1nc(-n2nc(-c3ccccc3)cc2-c2ccccc2)sc1C(/C=C/c1ccc([N+](=O)[O-])cc1)=N/NC(=O)c1ccncc1", "readout.name": "GI50", "result": "49.3 µM (inactive)"}
{"compound": "COc1ccc([N+](=O)[O-])c2c(NCCCN(C)C)c(C)c(C)nc12", "readout.name": "GI50", "result": "> 100 µM (inactive)"}
{"compound": "c1ccc2c(c1)CCc1c(-c3n[nH]c4c3CCc3ccccc3-4)n[nH]c1-2", "readout.name": "GI50", "result": "> 100 µM (inactive)"}
{"compound": "c1ccc(-c2nnc(SCc3c[nH]c4ccccc34)n2-c2ccccc2)cc1", "readout.name": "GI50", "result": "19.3 µM (inactive)"}
{"compound": "CC1(C)C(=O)C2(C#N)CCC1C2 (centres undefined)", "readout.name": "GI50", "result": "> 100 µM (inactive)"}
{"compound": "CCC1=CC2CN3Cn4c(c(COCc5c6n(c7ccccc57)CN5CC7C=C(CC)C5C6(C(=O)OC)C7)c5ccccc54)C(C(=O)OC)(C2)C13", "readout.name": "GI50", "result": "> 100 µM (inactive)"}
{"compound": "CCOC(=O)C1=C(C)NC(=O)NC1c1ccc(OC)cc1OC (centres undefined)", "readout.name": "GI50", "result": "> 100 µM (inactive)"}
{"compound": "CC1=C(O)C(=O)C2C(=O)C1C(C)C2c1ccc(C)cc1 (centres undefined)", "readout.name": "GI50", "result": "> 100 µM (inactive)"}
{"compound": "CC(C)c1cccc(C(C)C)c1NC(=S)NN=C1C=C(C(C)(C)C)C(=O)C(C(C)(C)C)=C1", "readout.name": "GI50", "result": "17.9 µM (inactive)"}
{"compound": "CN1c2ccccc2C(=O)NC12CCN(Cc1ccccc1)CC2", "readout.name": "GI50", "result": "57.1 µM (inactive)"}
{"compound": "COc1cc2c(cc1OC)C(Cl)C(c1ccc(Cl)c(Cl)c1)=C2Cl (centres undefined)", "readout.name": "GI50", "result": "16.9 µM (inactive)"}
{"compound": "CSc1nc(C#N)c(N)n1C", "readout.name": "GI50", "result": "> 100 µM (inactive)"}
{"compound": "CC1OC(OC2C(O[C@H]3CC[C@@]4(C)C(=CC[C@H]5[C@@H]6C[C@@H]7O[C@]8(CC[C@@H](C)CO8)[C@@H](C)[C@@H]7[C@@]6(C)CC[C@@H]54)C3)OC(CO)C(O)C2OC2OC(CO)C(O)C(O)C2O)C(O)C(O)C1O (some centres undefined)", "readout.name": "GI50", "result": "1.44 µM (inactive)"}
{"compound": "CCOP(=O)(OCC)C(Nc1cccc([N+](=O)[O-])c1)c1ccccc1 (centres undefined)", "readout.name": "GI50", "result": "> 100 µM (inactive)"}
{"compound": "CCOC(=O)C(O)(NC(=O)Nc1ccc(F)cc1)C(F)(F)F (centres undefined)", "readout.name": "GI50", "result": "> 100 µM (inactive)"}
{"compound": "O=CCCCCCOCc1ccccc1", "readout.name": "GI50", "result": "> 100 µM (inactive)"}
{"compound": "CCOC(=O)/C(=C\\c1cccc(C)c1)C(C)=O", "readout.name": "GI50", "result": "13.4 µM (inactive)"}
{"compound": "CC(C)C1N2CCCCC2[C@@H]2c3[nH]c4ccccc4c3CCN12 (some centres undefined)", "readout.name": "GI50", "result": "> 100 µM (inactive)"}
{"compound": "COc1cc(-c2cc(=O)c3c(O)c(OC)c(OC)c(OC)c3o2)ccc1O", "readout.name": "GI50", "result": "2.61 µM (inactive)"}
